Values compiled from the supplement of paper PMC11451515.

compounds and their reported cell viability
tested on: SEM cells; assay: cell viability relative to DMSO control; higher = less cytotoxic; conditions: HPLM + 10% dialyzed FBS; 48 h; 0.0211 µM
Report as a plain number; the unit % is understood.

Please review the entries below; each comes with its answer.
FC1=CC2=C3[N](CCN(CC3=C1)C(=O)N4CCCCC4)C=C2C/5=C(C(=O)NC5=O)\C6=CN=C7C=CC=C[N]67    57
CC(=O)OCC(=O)[C@@]1(O)CC[C@H]2[C@@H]3CCC/4=C/C(=O)/C=C\[C@]4(C)[C@H]3[C@@H](O)C[C@]12C    112

Quick check: cell viability of `c1cc2c(cc1[C@H]1OC[C@H]3[C@@H]1CO[C@@H]3c1ccc3c(c1)OCO3)OCO2` ?
123

Quick check: cell viability of CCCC[S+](=N)([O-])CCC(N)C(=O)O (stereo not drawn) ?
107

Quick check: cell viability of `CC1=CC/2=C(C=C1C)N(C[C@@H](O)[C@@H](O)[C@@H](O)CO)C/3=N/C(=O)NC(=O)C3=N2` ?
118

Quick check: cell viability of `CCC[C@H](Nc1nc(-c2ccc(NC(=O)NCC)c(OC)c2)ncc1C)c1cccnc1` ?
112

Quick check: cell viability of `Cc1cnc(Nc2cccc(CN3CCOCC3)c2)nc1Nc1cccc([S+](=O)([O-])NC(C)(C)C)c1` ?
91.7

Quick check: cell viability of `CCc1nc(N)nc(N)c1-c1ccc(Cl)cc1` ?
108
